- System: CCRF-CEM leukemia
- test_protocol: NCI-60 one-dose screen, 48 h
- measurement_context: 10 µM unless noted
The panel holds about 83,000 compounds, 20% with a hit somewhere; the sample as a whole holds those more often. Activity calls are given as the source filed them. Rule for the calls: active = growth percent below 10; inactive = the rest.
Respond only with the outcome that fits, drawn from y (active), n (inactive)

Task: What was the test verdict on COc1ccc(Cl)c([N+](=O)[O-])c1 ?
Output: n

Task: What was the test verdict on O=c1cc(/C=N\Nc2nc(-c3ccc(Cl)cc3Cl)cs2)c2cc(Cl)ccc2o1 ?
Output: n

Task: What was the test verdict on COC(=O)c1ccc2c(c1)n(Cc1ccc3ccccc3c1)c[n+]2Cc1ccc2ccccc2c1 ?
Output: n

Task: What was the test verdict on Nc1ccc(C2=NN(C(=O)c3cc(-c4ccc(Cl)cc4)nc4ccccc34)C(c3ccccc3)C2)cc1 (stereo not drawn) ?
Output: n

Task: What was the test verdict on COC(=O)c1ccc2c(c1)NC(=O)[C@@H]1CCCN21 ?
Output: n

Task: What was the test verdict on COc1cc(/C=C/C(=O)c2ccc(NC(=O)CSc3nnc(-c4cc(OC)c(OC)c(OC)c4)n3-c3ccccc3)cc2)cc(OC)c1OC ?
Output: y

Task: What was the test verdict on C=CCn1c(SCC(=O)Nc2ccc(C(=O)/C=C/c3cc(OC)c(OC)c(OC)c3)cc2)nnc1-c1ccc(Cl)cc1 ?
Output: y

Task: What was the test verdict on Nc1c(C(=O)c2ccccc2)sc2nc(-c3cc4ccccc4o3)cc(-c3ccc(Cl)cc3)c12 ?
Output: n

====

Here, each record is paired with measured growth data.
- Test system: SW-620 colon
- test_protocol: NCI-60 one-dose screen, 48 h (100 = growth as untreated, 0 = no growth, -100 = all killed)
- measurement_context: 10 µM unless noted
This is part of a sample that, as a whole, favours compounds with a hit. Of some 83,000 tested, about 20% had one in any assay.
The figure you give is taken to be in %; do not add the unit.

>  <compound>
COc1ccc2c(c1)C1(C(=O)N2)C(C#N)=C(c2ccccc2)Nc2c1c(-c1ccccc1)nn2-c1ccccc1 (configuration not stated)

>  <measurement_unit>
%

>  <growth>
8.54

$$$$
>  <compound>
O=C1C(Cl)=C(NCCCN(CCCNC2=C(Cl)C(=O)c3ccccc3C2=O)C2=C(Cl)C(=O)c3ccccc3C2=O)C(=O)c2ccccc21

>  <measurement_unit>
%

>  <growth>
47.6

$$$$
>  <compound>
CCOC(=O)c1c(-c2ccc(O)cc2)c(C#N)c2c(C#N)c(N)nn2c1N

>  <measurement_unit>
%

>  <growth>
42.6

$$$$
>  <compound>
COc1cc(C2=NNC(c3ccc(N(C)C)cc3)C2)cc(OC)c1OC (configuration not stated)

>  <measurement_unit>
%

>  <growth>
20

$$$$
>  <compound>
NC(=O)CN1C(=O)c2ccccc2C1=O

>  <measurement_unit>
%

>  <growth>
103

$$$$

Task: growth lookup needed for Cc1cc(Nc2nc(SCc3ccc(C(=O)Nc4ccc(F)cc4N)cc3)nn3cccc23)n[nH]1 , thanks.
Output: 23.9

Task: growth lookup needed for COc1cc(NC(=O)c2cc(O)c(C/C=C(\C)CCC=C(C)C)c(O)c2)cc2c1O[C@]1(C)CC[C@@H](O)C(C)(C)[C@H]1C2 , thanks.
Output: 9.02

Task: growth lookup needed for Nc1c(C(=O)Nc2ccccn2)sc2nc3c(cc12)CCCCC3 , thanks.
Output: 30

Task: growth lookup needed for O=C1CS/C(=N/c2nnc(-c3ccc(O)cc3)s2)N1 , thanks.
Output: 107

Task: growth lookup needed for C/C(=C\c1cnc(C)s1)[C@@H]1C[C@@H]2O[C@@H]2CCC[C@H](C)[C@H](O)[C@@H](C)C(=O)C(C)(C)[C@@H](O)CC(=O)O1 , thanks.
Output: 34.8

====

- Test system: A549/ATCC NSCLC
- test_protocol: NCI-60 one-dose screen, 48 h
- measurement_context: 10 µM unless noted
This is part of a sample that, as a whole, favours compounds with a hit. Of some 83,000 tested, about 20% had one in any assay. Activity calls are given as the source filed them. Rule for the calls: active = growth percent below 10; inactive = the rest.
Respond only with the outcome that fits, drawn from 1 (yes) for active, 0 (no) for inactive

Illustrative cases are given below, each with its answer.
>  <compound>
N#Cc1c(-c2ccc(F)cc2)nc(N=Nc2c(O)[nH]c3ccc(Cl)cc23)nc1N1CCOCC1

>  <class>
0 (no)

$$$$
>  <compound>
O=CN1N=C(c2ccc(Cl)cc2)CC1c1cccc(Nc2ccnc3cc(C(F)(F)F)ccc23)c1 (centres undefined)

>  <class>
0 (no)

$$$$
>  <compound>
CCOC(=O)C1CCN(S(=O)(=O)/N=C2/NC(=O)NC2=C(Cl)Cl)CC1

>  <class>
0 (no)

$$$$
>  <compound>
N#Cc1ccc(N2Cc3cc(Cl)ccc3OC3=C2C(=O)N(Cc2ccccc2)C3=O)cc1

>  <class>
0 (no)

$$$$
>  <compound>
COc1ccc(-c2nc(C#N)c(NCC(c3ccc(Cl)cc3)N3CCCCC3)o2)cc1 (centres undefined)

>  <class>
0 (no)

$$$$

Task: What was the test verdict on CCOC(=O)c1c(C(F)(F)F)n([O-])c2ccc(Cl)cc2[n+]1=O ?
Output: 1 (yes)

Task: What was the test verdict on Cc1cccc(NC(=O)c2sc3nc4c(cc3c2N)CN(Cc2ccccc2)CC4)c1C ?
Output: 0 (no)

Task: What was the test verdict on CCC[S@](=O)c1ccc2nc(NC(=O)OC)[nH]c2c1 ?
Output: 0 (no)

====

- System: HS 578T breast
- test_protocol: NCI-60 one-dose screen, 48 h
- measurement_context: 10 µM unless noted
This is part of a sample that, as a whole, favours compounds with a hit. Of some 83,000 tested, about 20% had one in any assay. The source made the active and inactive calls. The calls were made as follows: active = growth percent below 10; inactive = the rest.
Respond only with the outcome that fits, drawn from Yes for active, No for inactive

>  <compound>
O=C1C(Cl)=C(NCCCN(CCCNC2=C(Cl)C(=O)c3ccccc3C2=O)C2=C(Cl)C(=O)c3ccccc3C2=O)C(=O)c2ccccc21

>  <study_target>
HS 578T breast

>  <class>
No

$$$$
>  <compound>
N#Cc1c(-c2ccc(F)cc2)nc(N=Nc2c(O)[nH]c3ccccc23)nc1N1CCOCC1

>  <study_target>
HS 578T breast

>  <class>
No

$$$$
>  <compound>
COc1cc2c(Nc3ccc(NC(=O)Nc4ccc(Cl)c(C(F)(F)F)c4)c(Cl)c3)ncnc2cc1OCCCN1CCN(C)CC1

>  <study_target>
HS 578T breast

>  <class>
Yes

$$$$

Task: What was the test verdict on CCOCc1nc2ccccc2c(=O)[nH]1 ?
Output: No

Task: What was the test verdict on CN1CCN(S(=O)(=O)O[C@@H]2C(=O)N(c3cc4c5ccccc5ccc4c4ccccc34)[C@H]2c2ccc(F)cn2)CC1 ?
Output: No

Task: What was the test verdict on COc1cc(-c2cn(-c3ccc(Cl)c(Cl)c3)c(=O)[nH]2)cc(OC)c1OC ?
Output: No

Task: What was the test verdict on O=C(Nc1cc(Br)ccn1)c1cc2cc(Nc3nc(-c4ccccc4)nc4ccccc34)ccc2oc1=O ?
Output: No

Task: What was the test verdict on COc1ccccc1-c1ccc2nc(NC(=O)Nc3cc(C(F)(F)F)cc(C(F)(F)F)c3)sc2c1 ?
Output: Yes

Task: What was the test verdict on C(=C\c1cn(-c2ccccc2)nc1-c1ccccc1)/c1nnc(-c2c[nH]c3ccccc23)o1 ?
Output: No

====

- System: TK-10 renal
- test_protocol: NCI-60 one-dose screen, 48 h
- measurement_context: 10 µM unless noted
Compounds without any hit were thinned out: in the full panel of roughly 83,000, 20% have a hit. Calls of active or inactive are those of the source. The calls were made as follows: active = growth percent below 10; inactive = the rest.
Respond only with the outcome that fits, drawn from 1.0 for active, 0.0 for inactive

Illustrative cases are given below, each with its answer.
>  <compound>
O=c1c2ccccc2oc2ccc(OCCCCCN3CCCCCC3)cc12

>  <study_target>
TK-10 renal

>  <class>
0.0

$$$$
>  <compound>
NC[C@@H]1CCN(c2cc3c(cc2F)c(=O)n(N)c(=O)n3Cc2ccc(-c3ccccc3)cc2)C1

>  <study_target>
TK-10 renal

>  <class>
0.0

$$$$
>  <compound>
O=C(N/N=C/C[C@@H]1[C@@H](/C=C/[C@@H](O)COc2cccc(Cl)c2)[C@H](O)C[C@@H]1O)c1ccncc1

>  <study_target>
TK-10 renal

>  <class>
0.0

$$$$
>  <compound>
Oc1c(CCl)cc(Cl)cc1Cc1cc(Cl)cc(Cc2cc(Cl)cc(CCl)c2O)c1O

>  <study_target>
TK-10 renal

>  <class>
0.0

$$$$
>  <compound>
CCOC(=O)/C=C1\SC(=Nc2ccc(C#N)cc2)N(CCN2C(=O)/C(=C/C(=O)OCC)SC2=Nc2ccc(C#N)cc2)C1=O

>  <study_target>
TK-10 renal

>  <class>
0.0

$$$$
>  <compound>
COc1ccc(Cl)c([N+](=O)[O-])c1

>  <study_target>
TK-10 renal

>  <class>
0.0

$$$$

Task: What was the test verdict on C=C1C(=O)O[C@H]2[C@H]1CC/C(COC(=O)c1c[nH]c3ccccc13)=C\CC[C@@]1(C)O[C@@H]21 ?
Output: 1.0

Task: What was the test verdict on CCOC(=O)c1c(C)nc2c(c1N)/C(=C/c1cccs1)C(=O)N2c1ccc(OC)cc1 ?
Output: 0.0

Task: What was the test verdict on COc1ccc2c(c1)OC13Oc4cc(OC)ccc4C=C1CCCCC3=C2 ?
Output: 0.0

Task: What was the test verdict on COc1cc(-c2cn(-c3ccc(Cl)c(Cl)c3)c(=O)[nH]2)cc(OC)c1OC ?
Output: 0.0

Task: What was the test verdict on C=CCn1c(CN2CCN(c3cc4c(cc3F)c(=O)c(C(=O)O)cn4C3CC3)CC2)n[nH]c1=S ?
Output: 0.0

Task: What was the test verdict on COc1ccc(-c2cc(-c3nnc(SCC(=O)Nc4ccc(/C(C)=N\O)cc4)o3)c3ccccc3n2)cc1 ?
Output: 0.0

Task: What was the test verdict on C(=C\c1cn(-c2ccccc2)nc1-c1ccccc1)/c1nnc(-c2c[nH]c3ccccc23)o1 ?
Output: 0.0

Task: What was the test verdict on N#Cc1c(-c2ccc(F)cc2)c(C#N)c2c(C#N)c(N)nn2c1N ?
Output: 0.0

Task: What was the test verdict on C=C1C(=O)O[C@H]2[C@H]1CC/C(COC(=O)CCCCCCCCC(=O)OC/C1=C/CC[C@@]3(C)O[C@H]3[C@H]3OC(=O)C(=C)[C@@H]3CC1)=C\CC[C@@]1(C)O[C@@H]21 ?
Output: 1.0

Task: What was the test verdict on O=Cc1[nH]c(Sc2ccccc2)c2ccccc12 ?
Output: 0.0

Task: What was the test verdict on O=C(O)c1cc(N=Nc2ccc(-c3ccc(N=Nc4c(S(=O)(=O)O)cc5ccc(Nc6ccccc6)cc5c4O)cc3)cc2)ccc1O ?
Output: 0.0
